System: PC-3
test.details: Proliferation assay (Alamar Blue / XTT), PC-3
Type: cell-based
condition.info: Homo sapiens, cell line PC3 (prostate)
pEC50: −log10 of the molar value.
measurement.name: pEC50

chemical.smiles	target.or.test.system	observed.result
Cc1cc(-c2ccc3ncc(NC(=S)NC4CCC4)nc3c2)cc(C)c1O	PC-3	7.92

a. O=C(Nc1cnc2ccc(-c3cc(Cl)c(O)c(Cl)c3)cc2n1)NC1CCCCCC1
b. Cc1cc(-c2ccc3ncc(NC(=S)NC(C)C)nc3c2)cc(C)c1O
c. Cc1cc(-c2ccc3ncc(NC(=O)NC4CCCCC4)nc3c2)cc(C)c1O
d. CCCCCNC(=S)Nc1cnc2ccc(-c3cc(Cl)c(O)c(Cl)c3)cc2n1
INPUT: Ascending by pEC50, please: list the molecules accordingly. Answer by naming the labels in the order asked.
OUTPUT: d, a, c, b
(d: 6.25, a: 6.51, c: 7.29, b: 7.82)

a. Cc1cc(-c2ccc3ncc(NC(=O)NC(C)C)nc3c2)cc(C)c1O
b. CCCCNC(=O)Nc1cnc2ccc(-c3cc(C)c(O)c(C)c3)cc2n1
INPUT: Looking at a and b , which one comes out lower in pEC50 terms? Use the label to indicate which entry you chose.
OUTPUT: a

1. CCCNC(=O)Nc1cnc2ccc(-c3cc(C)c(O)c(C)c3)cc2n1
2. Cc1cc(-c2ccc3ncc(NC(=O)NCC(C)(C)C)nc3c2)cc(C)c1O
INPUT: Which has the higher pEC50, 1 or 2 ? Use the label to indicate which entry you chose.
OUTPUT: 1

a. Cc1cc(-c2ccc3ncc(NC(=O)Nc4cccs4)nc3c2)cc(C)c1O
b. Oc1c(Cl)cc(-c2ccc3ncc(NC(=S)NCCCc4ccccc4)nc3c2)cc1Cl
c. CCCCNC(=S)Nc1cnc2ccc(-c3cc(Cl)c(O)c(Cl)c3)cc2n1
d. Cc1cc(-c2ccc3ncc(NC(=O)NC(C)(C)C)nc3c2)cc(C)c1O
e. CCCCNC(=S)Nc1cnc2ccc(-c3cc(C)c(O)c(C)c3)cc2n1
INPUT: Ascending by pEC50, please: list the molecules accordingly. Answer by naming the labels in the order asked.
OUTPUT: b, c, a, d, e
(b: 5.78, c: 6.10, a: 6.51, d: 6.95, e: 8.05)
